meta.source: the supplement of paper PMC11061612

Tested on: PEO1 (Ovarian Carcinoma)
protocol-notes: combination Emax (second highest fraction inhibited in the dose matrix, 72 h); higher = more inhibition; extreme values may be limits of the assay
quantity-kind: combination Emax
The answer should be written as a number, with no unit following it.

Task: Look up combination Emax: CN(C)CCCOc1ccc(-c2ccc3ncc4c(c3c2)n(C2CCOCC2)c(=O)n4C)cn1 [AZD0156] + O=C(c1cc(Cc2n[nH]c(=O)c3ccccc23)ccc1F)N1CCN(C(=O)C2CC2)CC1 [Olaparib] (first compound max 3 µM, partner max 3 µM)
Output: 0.122

Task: Query C[C@@H](Nc1cc(F)cc(F)c1)c1cc(C(=O)N(C)C)cc2c(=O)cc(N3CCOCC3)oc12 [AZD8186] + CC(=O)c1c(C)c2cnc(Nc3ccc(N4CCNCC4)cn3)nc2n(C2CCCC2)c1=O [Palbociclib] (first compound max 10 µM, 7x7, partner max 10 µM) next
Output: 0.454

Task: Query CC1(C)CCC(CN2CCN(c3ccc(C(=O)NS(=O)(=O)c4ccc(NCC5CCOCC5)c([N+](=O)[O-])c4)c(Oc4cnc5[nH]ccc5c4)c3)CC2)=C(c2ccc(Cl)cc2)C1 [Venetoclax] + CN(C)CCCOc1ccc(-c2ccc3ncc4c(c3c2)n(C2CCOCC2)c(=O)n4C)cn1 [AZD0156] (first compound max 1 µM, 7x7, partner max 1 µM) next
Output: 0.134
